Tested on: Mus musculus
Assay: Antitumor activity against ip implanted L1210 leukemia in mouse after ip administration of 10 mg/kg for 5 days expressed as increase in mean life span
Format: functional
Settings: route intraperitoneal, 10 mg/kg
experimental readout: ILS

In: For the compound Cc1c2cc[n+]([C@@H]3O[C@H](CO)[C@H](O)[C@@H]3O)cc2c(C)c2c1[nH]c1ccc(O)cc12.[Cl-] (stereo in doubt; 43b) , what ILS is on record?
Out: >552%

In: Query (compound): Cc1c2cc[n+]([C@H]3O[C@@H](CO)[C@H](O)[C@@H](O)[C@@H]3O)cc2c(C)c2c1[nH]c1ccc(O)cc12.[Br-] (stereo in doubt; 65) ; field requested: ILS
Out: >212%

In: Give the measured ILS of Cc1c2cc[n+]([C@@H]3O[C@H](CO)[C@H](O)[C@@H]3O)cc2c(C)c2c1[nH]c1ccc(O)cc12.[Cl-] (stereo in doubt; 43a) .
Out: >377%
